biological target: α1-acid glycoprotein (AGP) (Homo sapiens); assay: Fluorescence titration; conditions: isolated α1-acid glycoprotein (AGP) in solution
Sequence (P02763 19-201): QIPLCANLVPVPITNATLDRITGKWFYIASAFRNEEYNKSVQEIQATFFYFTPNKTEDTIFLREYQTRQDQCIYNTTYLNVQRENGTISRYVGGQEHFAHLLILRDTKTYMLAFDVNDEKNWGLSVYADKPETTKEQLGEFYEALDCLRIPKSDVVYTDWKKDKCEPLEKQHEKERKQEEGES
QUANTITY KIND: pKd
// returns pKd (minus log10 of molar concentration), number only

Request the reported pKd associated with "Cc1c(N)nc([C@H](CC(N)=O)NC[C@H](N)C(N)=O)nc1C(=O)N[C@H](C(=O)N[C@H](C)[C@@H](O)[C@H](C)C(=O)N[C@H](C(=O)NCCc1nc(-c2nc(C(=O)NCCCCNC(=N)N)cs2)cs1)[C@@H](C)O)[C@@H](O[C@@H]1O[C@@H](CO)[C@@H](O)[C@H](O)[C@@H]1O[C@H]1O[C@H](CO)[C@@H](O)[C@H](OC(N)=O)[C@@H]1O)c1c[nH]cn1" 4.86

====

target: α1-acid glycoprotein (AGP) (Homo sapiens); experiment: Fluorescence titration
QUANTITY KIND: Kd (µM)
I only need the number, in µM, no unit after it.

Consider the compound "Cc1c(N)nc([C@H](CC(N)=O)NC[C@H](N)C(N)=O)nc1C(=O)N[C@H](C(=O)N[C@H](C)[C@@H](O)[C@H](C)C(=O)N[C@H](C(=O)NCCc1nc(-c2nc(C(=O)NCCC[S+](C)C)cs2)cs1)[C@@H](C)O)[C@@H](O[C@@H]1O[C@@H](CO)[C@@H](O)[C@H](O)[C@@H]1O[C@H]1O[C@H](CO)[C@@H](O)[C@H](OC(N)=O)[C@@H]1O)c1c[nH]cn1" and give its measured Kd. 13.2

====

molecular target: α1-acid glycoprotein (AGP) (Homo sapiens); test: in vitro; settings: isolated α1-acid glycoprotein (AGP) in solution
QUANTITY KIND: pKd
Interpret pKd as the negative base-10 log of the concentration measured in mol/L.

Given "Cc1c(N)nc([C@H](CC(N)=O)NC[C@H](N)C(N)=O)nc1C(=O)N[C@H](C(=O)N[C@H](C)[C@@H](O)[C@H](C)C(=O)N[C@H](C(=O)NCCc1nc(-c2nc(C(=O)NCCCCNC(=N)N)cs2)cs1)[C@@H](C)O)[C@@H](O[C@@H]1O[C@@H](CO)[C@@H](O)[C@H](O)[C@@H]1O[C@H]1O[C@H](CO)[C@@H](O)[C@H](OC(N)=O)[C@@H]1O)c1c[nH]cn1" , state its recorded pKd. 5.86
